assay: FRG1 expression reporter modulators in myotubes – cell-based, C2C12 myotubes, firefly/Renilla luciferase, luminescence, FRG1 inhibition for FSHD, primary screen (AID 1084); conditions: FRG1 promoter luciferase, higher = more signal, called active from +8 up or from −8 down
Activity calls are given as the source filed them.
Collected z-score values appear next to each entry.

Reference set (5 entries):
smiles string	test value
COCCOC(=O)N1C(=O)[C@@]2(c3cc(C#CCCO)ccc31)[C@H](c1ccc(OCCO)cc1)N1[C@H](c3ccccc3)[C@H](c3ccccc3)OC(=O)[C@H]1[C@@H]2C(=O)Nc1nc2ccccc2s1	2.92 (inactive)
CCOC(=O)C[C@H]1[C@H](OC(=O)c2cc3ccccc3oc2=O)[C@@H](NC(=O)c2ccccc2)c2cc(OCCCO)ccc2N1C(=O)c1ccccc1	1.57 (inactive)
COCCOC(=O)N1C(=O)[C@@]2(c3cc(C#CC4=CCCCC4)ccc31)[C@H](c1ccccc1OCCO)N1[C@H](c3ccccc3)[C@H](c3ccccc3)OC(=O)[C@H]1[C@@H]2C(=O)N1CCN(c2ncccn2)CC1	-0.624 (inactive)
C[N+](C)(C)CCCC[C@@H]1NC(=O)[C@@H]2C[C@H](C(=O)NCCCCCCN)[C@H](c3cccc(OCCO)c3)N2C1=O	-0.155 (inactive)
COC(=O)c1c(CC[C@@H](CO)NC(=O)N[C@@H](C)Cn2cc(-c3ccccn3)nn2)oc(C(C)=O)c1C(=O)OC	0.224 (inactive)

# ---- query molecule ----
Ask: Fill in: z-score of "[N-]=[N+]=Nc1ccccc1[C@H]1OC(c2ccc(OCCCO)cc2)=N[C@@]1(Cc1ccccc1)C(=O)NCCN1CCOCC1" is ___
Reply: 0.0219 (inactive)

* * *

assay: small molecules captured by biotinylated probe aFST – biochemical, small-molecule microarray, fluorescence 635/667, stem cell growth factor project, primary screen (AID 1086); settings: higher = more signal;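 also: score merges 667 nm fluorescence with signal-to-noise of each printed compound spot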
measurement kind: composite z-score
Please respond with just the number, no unit label.

Reference set (6 entries):
compound	measurement kind	test value
CO[C@H]1O[C@H](CO)[C@@H](OC(=O)Nc2ccccc2)[C@H](OC(=O)c2cc3ccccc3[nH]2)[C@H]1OC(=O)c1cc2ccccc2[nH]1	composite z-score	0.219
CC1CC/C=C\[C@H]2OC34C=CCN(C(C)(C)C)C(=O)[C@H]3N(CCCCCO)C(=O)[C@@H]4C2C(=O)O1 (stereo partly drawn)	composite z-score	-0.581
Cc1ccc(NN2C(C(O)c3c(F)cccc3Cl)C=CC3C(=O)N(C4CCCCC4)C(=O)C32)cc1 (stereo not drawn)	composite z-score	0.697
CN(C)C(=O)[C@]1(CCC(=O)OC(C)(C)C)N=C(c2ccc(OCCCO)cc2)O[C@@H]1c1ccccc1CN=[N+]=[N-]	composite z-score	1.34
COc1ccc(C#Cc2ccc3c(c2)[C@]2(C(=O)N3)[C@H](c3ccc(OCCO)cc3)N3[C@H](c4ccccc4)[C@H](c4ccccc4)OC(=O)[C@H]3[C@@H]2C(=O)NC[C@H](O)c2ccccc2)cc1	composite z-score	0.547
CC1CC/C=C\[C@H]2OC34C=CCN(c5ccc6ccccc6c5)C(=O)[C@H]3N(CCCO)C(=O)[C@@H]4C2C(=O)O1 (stereo partly drawn)	composite z-score	-0.757

Ask: Fill in: composite z-score of "O=C(c1ccccc1)N1C(=O)[C@]2(Cc3ccccc31)N=C(c1ccc(OCCCO)cc1)O[C@@H]2c1ccccc1" is ___
Reply: 0.313

Ask: "CCCNC(=O)[C@@H]1c2ccccc2C(=O)N(Cc2ccc(OC(F)(F)F)cc2)[C@H]1c1ccc(CO)cc1" , same question.
Reply: 0.0347

Ask: "CCC#CCN(Cc1ccccc1Br)[C@H](/C=C/C1CC1)[C@@H](O)Cc1ccccc1" , same question.
Reply: -0.17

Ask: "CC(C)N1C(=O)C[C@@](C(=O)O)(c2ccc([N+](=O)[O-])cc2)[C@H]1c1ccc(CO)cc1" , same question.
Reply: -0.322

Ask: "CC(C)[Si]1(C(C)C)OCc2cc(-c3ccc(-c4ccc(Cl)c(Cl)c4)o3)nc(-c3ccccc3)c21" , same question.
Reply: -0.774

Ask: "CO[C@H]1O[C@H](CO)[C@@H](OC(=O)Nc2ccc3c(c2)OCO3)[C@H](OC(=O)Nc2ccc3c(c2)OCO3)[C@@H]1OC(=O)Nc1ccc2c(c1)OCO2" , same question.
Reply: 0.338

Ask: C=CCC(OC(C)=O)[C@@H]1[C@@H](N(Cc2ccc(-c3cccc(C(F)(F)F)c3)o2)C(=O)c2ccc(-c3ccccc3)cc2)c2cc(OCCCO)ccc2N1C(=O)Cc1ccc2ccccc2c1 (stereo partly drawn) , same question.
Reply: 1.09

Ask: "CCCC[C@@H]1C[C@H]1[C@@H](NC(=O)c1cccs1)c1ccccc1C(F)(F)F" , same question.
Reply: -0.517

Ask: CCCC1(C(=O)OC)C=C2C(=C(C)C(=O)C2C)CN1 (stereo not drawn) , same question.
Reply: 0.454

Ask: "COC(=O)[C@@]1(Cc2ccccc2)[C@H]2c3cc(C(=O)N4CCCC4)n(CCc4ccccn4)c3C[C@H]2CN1C(=O)c1ccccc1" , same question.
Reply: 1.18

* * *

Collected composite z-score values appear next to each entry.
system: Plasmodium falciparum Sir2 (PF13_0152, Sir2A); assay: Plasmodium falciparum Sir2A binding compounds – biochemical, small-molecule microarray, 635 nm fluorescence, primary screen (AID 1098); settings: fluorescence 635 nm, higher = more signal;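 also: score merges spot fluorescence intensity with its signal-to-noise ratio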
Please respond with just the number, no unit label.

Reference set (4 entries):
molecule	composite z-score
C=CCNC(=O)[C@@H]1[C@H]2C(=O)O[C@H](c3ccccc3)[C@H](c3ccccc3)N2[C@H](c2ccccc2OCCO)[C@@]12C(=O)Nc1ccc(C#CCCO)cc12	0.124
CCOC(=O)C1=C[C@@H](C(C)(C)C)N(S(=O)(=O)c2ccc(C)cc2)[C@H]1c1cccc2ccccc12	0.462
CCOc1cc(C(O)C2C=CC3C(=O)NC(=O)C3N2Nc2ccc(Cl)cc2Cl)ccc1O (stereo unspecified)	-0.402
COC(=O)C1=CC(CCCO)=CC(c2cccs2)N(Cc2cccc(OC(F)(F)F)c2)C=C1C(=O)OC (stereo unspecified)	0.0898

Ask: Fill in: composite z-score of CCN(CC)c1ccc(N2CC=CC34O[C@@H]5/C=C\CCCOC(=O)C5[C@H]3C(=O)N(C(C)CO)[C@@H]4C2=O)cc1 (stereo partly specified) is ___
Reply: 1.03

Ask: "COc1ccc(C#Cc2ccc3c(c2)[C@]2(C(=O)N3)[C@H](c3ccc(O)cc3)N3[C@H](c4ccccc4)[C@H](c4ccccc4)OC(=O)[C@H]3[C@@H]2C(=O)Nc2nc3ccccc3s2)cc1" , same question.
Reply: 1.48

Ask: CCCC1(C(=O)OC)C=C2C(=C(C)C(=O)C2C)CN1 (stereo unspecified) , same question.
Reply: -0.79

* * *

assay: change in splice reporter luminescence, either direction, cell-based, HEK293, spliceosome inhibition project, primary screen (AID 1101); conditions: HEK293 splicing luciferase reporter, 24 h, higher = more signal, called active from +8 up or from −8 down;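 also: HEK293 cells carrying a splicing-competent luciferase reporter gene; test concentration not given here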
Collected z-score values appear next to each entry.
Please respond with just the number, no unit label.

Reference set (6 entries):
molecule	z-score
Cc1ccc(F)cc1S(=O)(=O)N[C@@H]1CCN(Cc2ccc(Br)cc2)C1	-1.12
CCOC(=O)C1=CC[C@@H](c2ccccc2)N(S(=O)(=O)c2ccc(C)cc2)[C@H]1c1ccccc1	-0.387
COC(=O)C1(CC(C)C)C=C2C(=C(c3ccccc3)C(=O)C2C)CN1 (configuration not stated)	1.45
CCCC1(C(=O)OC)C=C2C(=C(C)C(=O)C2C)CN1 (configuration not stated)	0.888
CCCCNC(=O)c1ccc(C#CC(C)(C)C)c(OC(C)=O)c1	-1.11
COc1cccc(C)c1NC(=O)O[C@H]1[C@H](OC(=O)Nc2ccc3c(c2)OCO3)[C@@H](OC(=O)Nc2ccc3c(c2)OCO3)[C@@H](OC)O[C@@H]1CO	-0.23

Ask: Fill in: z-score of "C#CCN(Cc1ccccc1Br)[C@H](/C=C/c1ccccc1)[C@@H](O)Cc1ccccc1" is ___
Reply: -1.51

Ask: "COc1ccc(CCNC(=O)[C@@]2(c3ccc([N+](=O)[O-])cc3)CC(=O)N(C3CCCCC3)[C@@H]2c2ccc(CO)cc2)cc1" , same question.
Reply: -0.134

Ask: C=CCC(OC(C)=O)[C@@H]1[C@@H](N(Cc2ccc(-c3cccc(C(F)(F)F)c3)o2)C(=O)Cc2ccc(OC)cc2)c2cc(OCCCO)ccc2N1C(=O)c1ccc(-c2ccccc2)cc1 (some centres not stated) , same question.
Reply: -1.13

Ask: "CCCC[C@@H]1C[C@H]1[C@@H](NC(=O)c1cccs1)c1ccccc1C(F)(F)F" , same question.
Reply: -0.701

Ask: "COC(=O)[C@@H]1N=C(c2ccc(OCCCO)cc2)O[C@@H]1C" , same question.
Reply: 0.04

Ask: "COCC(=C=CC[C@H](O)c1ccc(CO)o1)CCO" , same question.
Reply: 0.191

Ask: "C=CCN1C(=O)[C@]2(CCS(=O)(=O)c3ccccc3)N=C(c3ccc(OCCCO)cc3)O[C@@H]2c2ccccc21" , same question.
Reply: -1.81

Ask: CC1CC/C=C\[C@H]2OC34C=CCN(Cc5ccccc5)C(=O)[C@H]3N(C(CO)C(C)C)C(=O)[C@@H]4C2C(=O)O1 (some centres not stated) , same question.
Reply: -0.124

Ask: "CC1=C2[C@@H](CCc3ccccc3)OB(O)C[C@@H]2[C@@H]2C(=O)N(C)C(=O)[C@@H]2C1" , same question.
Reply: 0.305

Ask: O=C1C2C=CC(C(O)c3ccco3)N(Nc3ccccc3F)C2C(=O)N1c1ccccc1 (configuration not stated) , same question.
Reply: 0.901

Ask: CC(CO)N1C(=O)[C@@H]2[C@H]3C(=O)OCC=C[C@H]3OC23C=CCN(Cn2nnc4ccccc42)C(=O)[C@@H]13 (some centres not stated) , same question.
Reply: 1.12
